TESTED_TARGET: HLA-A*02:06
MEASUREMENT_DESCRIPTION: IEDB peptide-MHC binding, purified MHC/competitive/fluorescence; filed as Kd, often an IC50 or EC50 that approximates it; bounds were set here for any values at or beyond the usual limits of such assays
CONDITION_INFO: source organism: Corynebacterium glutamicum ATCC 13032
VALUE_KIND: Kd (nM)

1. HLPELIWRS: 2.2

###

TESTED_TARGET: HLA-A*11:01
MEASUREMENT_DESCRIPTION: IEDB peptide-MHC binding, purified MHC/competitive/fluorescence; bounds were set here for any values at or beyond the usual limits of such assays
CONDITION_INFO: source organism: Variola virus
pIC50: −log10 of the molar value.
VALUE_KIND: pIC50

1) NPGTYVYFY: 4.41

###

TESTED_TARGET: HLA-A*02:03
MEASUREMENT_DESCRIPTION: IEDB peptide-MHC binding, purified MHC/competitive/fluorescence; filed as Kd, often an IC50 or EC50 that approximates it; bounds were set here for any values at or beyond the usual limits of such assays
CONDITION_INFO: source organism: Vibrio vulnificus CMCP6
pKd: −log10 of the molar value.
VALUE_KIND: pKd

1. LEMNDAPTA: ≤ 4.70

###

TESTED_TARGET: HLA-B*07:02
MEASUREMENT_DESCRIPTION: IEDB peptide-MHC binding, purified MHC/competitive/fluorescence; filed as Kd, often an IC50 or EC50 that approximates it; bounds were set here for any values at or beyond the usual limits of such assays
CONDITION_INFO: source organism: Cryptosporidium parvum Iowa II
VALUE_KIND: Kd

1. FTWQHNYYL: ≥ 5 µM

###

TESTED_TARGET: HLA-B*08:01
MEASUREMENT_DESCRIPTION: IEDB peptide-MHC binding, purified MHC/competitive/radioactivity; filed as Kd, often an IC50 or EC50 that approximates it; bounds were set here for any values at or beyond the usual limits of such assays
CONDITION_INFO: source organism: Dengue virus 1 Brazil/97-11/1997
pKd: −log10 of the molar value.
We begin with a simple list: items and their reported pKd.
VALUE_KIND: pKd

1. PRRCLKPVIL: 5.57
2. HQLWTTLLSL: 5.70
3. MLLALIAVL: 5.84

###

TESTED_TARGET: HLA-B*83:01
MEASUREMENT_DESCRIPTION: IEDB peptide-MHC binding, purified MHC/competitive/fluorescence; filed as Kd, often an IC50 or EC50 that approximates it; bounds were set here for any values at or beyond the usual limits of such assays
CONDITION_INFO: source organism: human gammaherpesvirus 4
pKd: −log10 of the molar value.
VALUE_KIND: pKd

1. RPRPRTPEW: 6.37

###

TESTED_TARGET: HLA-A*03:01
MEASUREMENT_DESCRIPTION: IEDB peptide-MHC binding, purified MHC/competitive/fluorescence; bounds were set here for any values at or beyond the usual limits of such assays
CONDITION_INFO: source organism: Homo sapiens
VALUE_KIND: IC50

1) YFYYNAFHWAI: ≥ 20 µM

###

TESTED_TARGET: HLA-A*01:01
MEASUREMENT_DESCRIPTION: IEDB peptide-MHC binding, purified MHC/competitive/fluorescence; bounds were set here for any values at or beyond the usual limits of such assays
CONDITION_INFO: source organism: Sudan ebolavirus
VALUE_KIND: IC50 (nM)

1) YTENTSSYY: 927
